test-target: recombinant human Meningioma Expressed Antigen 5 (MGEA5), also referred to as O-GlcNAcase (OGA) (Homo sapiens, UniProt O60502)
Construct: Full length OGA enzyme was purchased at OriGene (cat #TP322411); purchased OriGene TP322411
assay-overview: OGA biochemical assay (inhibition of FM-GlcNAc hydrolysis, fluorescence)
condition-summary: read-out: Enzymatic Emax (%)
parameter: Emax (%)
Could you give me the number in %? Just the number is fine.

molecule	Emax (%)
Cc1ccc(OC2CCN(C(C)c3ccc4c(n3)OCCO4)CC2)nn1.Cl (stereo not drawn) [Compound 151]	98
Cc1ncc(OC2CCN(C(C)c3ccc4c(n3)OCCO4)CC2)cn1.Cl (stereo not drawn) [Compound 90]	100
Cc1cc(OC2CCN(C(C)c3ccc4c(n3)OCCO4)CC2)cc(OC(C)C)n1 (stereo not drawn) [Compound 124]	98

What does the record list as Emax for Cc1cc(C)nc(OC2CCN(C(C)c3ccc4c(n3)OCCO4)CC2)c1 (stereo not drawn) [Compound 71] ?
100

Let us now turn to Cc1cc(OC2CCN([C@@H](C)c3ccc4c(n3)OCCO4)CC2)cc(C(F)(F)F)n1 (single isomer, unassigned) [Compound 147]
96

Let us now turn to CC(c1nc2c(cc1F)OCCO2)N1CCC(Oc2ccc(C(F)(F)F)cn2)CC1 (stereo not drawn) [Compound 158]
99

Let us now turn to Cc1cc(OC2CCN(C(C)c3ccc4c(n3)OCCO4)CC2)ncc1C#N (stereo not drawn) [Compound 101]
94

Let us now turn to CC(c1ccc2c(n1)OCCO2)N1CCC(Oc2cc[nH]c(=O)c2)CC1 (stereo not drawn) [Compound 93]
98

Let us now turn to Cc1cc(OC2CCN(C(C)c3cnc4c(c3)OCCO4)CC2)cc(C(F)(F)F)n1 (stereo not drawn) [Compound 19]
92

###

test-target: recombinant human Meningioma Expressed Antigen 5 (MGEA5), also referred to as O-GlcNAcase (OGA) (Homo sapiens, UniProt O60502)
Construct: Full length OGA enzyme was purchased at OriGene (cat #TP322411); purchased OriGene TP322411
assay-overview: OGA biochemical assay (inhibition of FM-GlcNAc hydrolysis, fluorescence)
condition-summary: read-out: Enzymatic Emax (%)
parameter: Emax (%)
Could you give me the number in %? Just the number is fine.

Sample records with Emax:
compound	endpoint-value
Cc1cc(OC2CCN(C(C)c3nc4c(cc3F)OCCO4)CC2)cc(C#N)n1 (centres unmarked)	102
COc1cc(COC2CCN(C(C)c3nc4c(cc3F)OCCO4)CC2)cc(C)n1 (centres unmarked)	94

What does the record list as Emax for C[C@@H](c1ccc2c(n1)OCCO2)N1CCC(Oc2ccc(C(N)=O)nn2)CC1 (single isomer, unassigned) ?
95

###

test-target: OGA (Homo sapiens, UniProt O60502)
Construct: HEK293 cells inducible for P301L mutant human Tau (isoform 2N4R) were established at Janssen; endogenous in cells; host or cells: HEK293 cells inducible for P301L mutant human Tau (2N4R)
assay-overview: OGA cellular assay (ICC detection of O-GlcNAcylated proteins in HEK293 cells inducible for P301L mutant human Tau)
Format: cell-based
condition-summary: HEK293 cells inducible for P301L mutant human Tau, 6 hours incubation; read-out: Cellular hOGA; pEC50 (converted)
Protocol: HEK293 cells inducible for P301L mutant human Tau (isoform 2N4R) were established at Janssen. Thiamet-G was used for both plate validation (high control) and as reference compound (reference EC50 assay validation). OGA inhibition is evaluated through the immunocytochemical (ICC) detection of O-GlcNAcylated proteins by the use of a monoclonal antibody (CTD110.6; Cell Signaling, #9875) detecting 0-GlcNAcylated residues as previously described (Dorfmueller et al. 2010 Chemistry & biology, 17:1250). […]
parameter: EC50 (nM)
Could you give me the number in nM? Just the number is fine.

compound	test-target	EC50 [nM]
Cc1cc(OC2CCN([C@H](C)c3nc4c(cc3F)OCCO4)CC2)cc(C)n1 (single isomer, unassigned)	OGA (Homo sapiens, UniProt O60502)	50.1
Cc1ncc(COC2CCN(C(C)c3nc4c(cc3F)OCCO4)CC2)cn1 (single isomer, unassigned) [Compound 136]	OGA (Homo sapiens, UniProt O60502)	50.1
Cc1cc(OC2CCN(C(C)c3cc4nc(C)sc4cc3F)CC2)cc(C)n1 (centres unmarked)	OGA (Homo sapiens, UniProt O60502)	63.1

Look up EC50 with OGA (Homo sapiens, UniProt O60502) for this compound: Cc1ncc(OC2CCN(C(C)c3nc4c(cc3F)OCCO4)CC2)cn1.Cl (centres unmarked)
200

###

test-target: OGA (Mus musculus, UniProt Q9EQQ9)
Construct: Brains were immediately removed from the skull; from tissue; host or cells: mouse brain (forebrain area of sagittal sections)
assay-overview: Ex vivo OGA occupancy assay using [3H]-ligand
Format: in vivo
condition-summary: mouse, po, male NMRI or C57Bl6j mice, p.o., 24 h after administration, forebrain area of brain sections, 3 nM [3H]-ligand, normalised to vehicle, read-out: Occupancy (% +/− sd)
Known receptor occupancy at 25 mg/kg of a selection of compounds
Could you give me the number in %? Just the number is fine.

Sample records with receptor occupancy at 25 mg/kg:
compound	unit-abbrev	receptor occupancy at 25 mg/kg
Cc1cc(OC2CCN([C@H](C)c3nc4c(cc3F)CCO4)CC2)cc(C)n1 (single isomer, unassigned)	%	94.7
Cc1cc(OC2CCN([C@@H](C)c3nc4nc(C)sc4cc3F)CC2)cc(C)n1 (single isomer, unassigned)	%	97
Cc1cc(OC2CCN([C@H](C)c3nc4c(cc3F)OCCO4)CC2)cc(C)n1 (single isomer, unassigned)	%	84.3

Turning now to a further record.
What does the record list as receptor occupancy at 25 mg/kg for Cc1ncc(OC2CCN(C(C)c3nc4c(cc3F)CCO4)CC2)cn1 (stereo not shown) ?
20

###

test-target: OGA (Homo sapiens)
Construct: HEK293 cells inducible for P301L mutant human Tau (isoform 2N4R) were established at Janssen; endogenous in cells; host or cells: HEK293 cells inducible for P301L mutant human Tau (2N4R)
assay-overview: OGA cellular assay (ICC detection of O-GlcNAcylated proteins in HEK293 cells inducible for P301L mutant human Tau)
Assay type: cell-based
condition-summary: HEK293, HEK293 cells inducible for P301L mutant human Tau, 6 hours incubation; maximum = Thiamet G 200 uM
parameter: Emax

Sample records with Emax:
molecule	Emax
CC(c1ccc2c(n1)OCCO2)N1CCC(Oc2cnc(C3CCC3)nc2)CC1 (centres unmarked)	34%
CC(c1ccc2c(n1)OCCO2)N1CCC(Oc2ccc(C(F)(F)F)cn2)CC1 (centres unmarked)	21%
Cc1ncc(OC2CCN(C(C)c3ccc4c(n3)OCCC4)CC2)cn1.Cl (centres unmarked)	31%
COc1cc(OC2CCN([C@H](C)c3nc4nc(C)sc4cc3F)CC2)cc(C)n1 (single isomer, unassigned)	7%

Turning now to a further record.
What does the record list as Emax for Cc1cccc(OC2CCN(C(C)c3ccc4c(n3)OCCO4)CC2)n1 (centres unmarked) ?
33%

###

test-target: recombinant human Meningioma Expressed Antigen 5 (MGEA5), also referred to as O-GlcNAcase (OGA) (Homo sapiens)
Construct: Full length OGA enzyme was purchased at OriGene (cat #TP322411); purchased OriGene TP322411
Sequence (O60502 1-916): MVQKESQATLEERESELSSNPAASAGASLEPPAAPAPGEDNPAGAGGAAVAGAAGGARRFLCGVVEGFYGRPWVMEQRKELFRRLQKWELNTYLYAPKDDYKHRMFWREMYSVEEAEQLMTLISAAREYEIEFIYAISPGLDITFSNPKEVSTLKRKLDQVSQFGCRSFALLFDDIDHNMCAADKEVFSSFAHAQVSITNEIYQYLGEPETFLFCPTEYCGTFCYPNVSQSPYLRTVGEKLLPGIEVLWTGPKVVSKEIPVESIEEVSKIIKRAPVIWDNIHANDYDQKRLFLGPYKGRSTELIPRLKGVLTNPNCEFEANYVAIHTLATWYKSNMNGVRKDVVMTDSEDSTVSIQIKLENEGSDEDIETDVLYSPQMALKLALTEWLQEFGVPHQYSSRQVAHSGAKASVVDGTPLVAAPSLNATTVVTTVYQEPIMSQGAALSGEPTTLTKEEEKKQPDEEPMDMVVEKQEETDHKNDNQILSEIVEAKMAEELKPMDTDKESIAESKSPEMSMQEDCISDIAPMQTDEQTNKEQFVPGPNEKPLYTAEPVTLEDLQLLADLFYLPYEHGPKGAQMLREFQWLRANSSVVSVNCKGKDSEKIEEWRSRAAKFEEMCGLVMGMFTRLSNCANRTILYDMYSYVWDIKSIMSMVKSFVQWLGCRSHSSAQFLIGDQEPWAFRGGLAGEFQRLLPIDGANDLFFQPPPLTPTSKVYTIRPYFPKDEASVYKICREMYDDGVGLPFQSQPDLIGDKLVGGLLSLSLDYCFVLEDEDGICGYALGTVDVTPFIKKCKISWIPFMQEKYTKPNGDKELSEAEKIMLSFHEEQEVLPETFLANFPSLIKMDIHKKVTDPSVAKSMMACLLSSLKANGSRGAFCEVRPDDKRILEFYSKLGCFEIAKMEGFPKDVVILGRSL
assay-overview: OGA biochemical assay (inhibition of FM-GlcNAc hydrolysis, fluorescence)
condition-summary: read-out: Enzymatic hOGA, pIC50 (converted)
parameter: IC50
For clarity, give the value followed by its unit.

Sample records with IC50:
compound	IC50
Cc1cc(OC2CCN(C(C)c3ccc4c(n3)OCCO4)CC2)nc(C)n1 (single isomer, unassigned) [Compound 11]	2510 nM
Cc1cc(OC2CCN(C(C)c3cnc4c(c3)OCCO4)CC2)cc(C)n1 (stereo not shown) [Compound 5]	1260 nM
Cc1cc(CC2CCN(C(C)c3ccc4c(n3)OCCO4)CC2)cc(C)n1 (stereo not shown) [Compound 140]	398 nM
Cc1cc(NC2CCN(C(C)c3ccc4c(n3)OCCO4)CC2)cc(C)n1 (stereo not shown) [Compound 78]	100 nM
Cc1cc(OC2CCN(C(C)c3ccc4c(n3)OCCO4)CC2)nc(C)n1 (stereo not shown) [Compound 9]	100 nM
Cc1cc(OC2CCN(C(C)c3nc4c(cc3F)OCCO4)CC2)cc(C#N)n1 (stereo not shown) [Compound 128]	7.94 nM
Cc1ncc(OC2CCN(C(C)c3ccc4c(n3)OCCC4)CC2)cn1.Cl (stereo not shown) [Compound 139]	200 nM
CC(c1ccc2c(n1)OCCO2)N1CCC(Oc2ccc(C(F)(F)F)nc2)CC1 (stereo not shown) [Compound 68]	79.4 nM

What does the record list as IC50 for COc1cc(OC2CCN(C(C)c3ccc4sc(C)nc4n3)CC2)cc(C)n1 (single isomer, unassigned) [Compound 24] ?
20 nM

Let us now turn to Cc1cc(OC2CCN(C(C)c3ccc4c(n3)OCC4)CC2)cc(C)n1 (stereo not shown) [Compound 60]
39.8 nM

Let us now turn to Cc1ncc(OC2CCN(C(C)c3nc4c(cc3F)OCCO4)CC2)nc1C (stereo not shown) [Compound 110]
7.94 nM

Let us now turn to Cc1cnc(OC2CCN(C(C)c3nc4c(cc3F)OCCO4)CC2)cc1C (stereo not shown) [Compound 157]
20 nM

Let us now turn to Cc1cc(C)c(OC2CCN(C(C)c3nc4c(cc3F)OCCO4)CC2)nn1 (stereo not shown) [Compound 88]
100 nM

Let us now turn to Cc1cc(OC2CCN(C(C)c3ccc4c(n3)OCCO4)CC2)c(Cl)c(C)n1 (stereo not shown) [Compound 66]
79.4 nM
